- System: Wild type
- experiment: S. aureus survival, RN4220 and DeltatarO strains – OD600, teichoic acid synthesis inhibitors, primary screen (AID 463173)
- cond: S. aureus RN4220 wild type/DeltatarO growth, OD600, 18 h, stronger effect = lower value, screened at 18.75 µg/mL (by protocol)
The whole screen tested about 52,000 compounds, of which about 1,700 (3.3%) were called active. Many of the other results were omitted from the sample, so actives are more common in it than they were.
# strict inequality: survival < 60% yields Met, everything else yields Not met

stdin: Determine if Cc1ccc(CN2c3ccccc3-c3nc(SCC(=O)NCCc4ccccc4)ncc3S2(=O)=O)cc1 shows survival strictly lower than 60%.
stdout: Met

stdin: Lookup Cc1ccccc1CN1c2ccccc2-c2nc(SCC(=O)NCc3ccccc3)ncc2S1(=O)=O
stdout: Met

stdin: Lookup Cc1cccc(C(=O)Nc2cccc(OCc3cc(=O)n4cccc(C)c4n3)c2)c1
stdout: Not met

stdin: Lookup Cc1ccc(OCC(=O)Nc2ccc(OCc3cc(=O)n4cccc(C)c4n3)cc2)cc1C
stdout: Met

stdin: Lookup Cc1cccn2c(=O)cc(COc3ccc(NC(=O)COc4ccc(F)cc4)cc3)nc12
stdout: Not met

stdin: Lookup Cc1cccn2c(=O)cc(COc3cccc(NC(=O)c4ccccc4F)c3)nc12
stdout: Met

stdin: Lookup CCc1cccc(NC(=O)CSc2ncc3c(n2)-c2ccccc2N(Cc2ccccc2C)S3(=O)=O)c1
stdout: Met

stdin: Lookup CCN1c2ccccc2-c2nc(SCC(=O)NCc3ccccc3)ncc2S1(=O)=O
stdout: Not met

stdin: Lookup CCOc1ccc(NC(=O)CSc2ncc3c(n2)-c2ccccc2N(Cc2ccccc2C)S3(=O)=O)cc1
stdout: Not met

----------
Hi there, I'd appreciate the recorded survival for every entry that follows.
- Tested on: Wild type
- experiment: S. aureus survival, RN4220 and DeltatarO strains – OD600, teichoic acid synthesis inhibitors, primary screen (AID 463173)
- cond: S. aureus RN4220 wild type/DeltatarO growth, OD600, 18 h, stronger effect = lower value, screened at 18.75 µg/mL (by protocol)
In all, about 52,000 compounds went through this assay and about 1,700 (3.3%) were called active. The list comes from a sample in which actives are over-represented; it also holds close analogues and randomly drawn compounds.
Write the number in % without appending the unit.

stdin: Given the compound COc1ccc(CC(=O)Nc2cc(-c3cn4cccnc4n3)ccc2C)cc1OC , what is its reported survival?
stdout: 85

stdin: Lookup CC(C)(C)OC(=O)N1CCC(c2c(C(=O)NCc3ccccc3)cnn2-c2ccc(F)cc2)CC1
stdout: 133

stdin: Lookup COCCNc1ccc2cc(S(=O)(=O)N3CCCCC3)ccc2n1
stdout: 56

stdin: Lookup CC(C)(C)OC(=O)N1CCC(c2c(C(=O)NCc3ccc(F)cc3)cnn2-c2ccc(F)cc2)CC1
stdout: -6

stdin: Lookup CC1CCCCN1CC(=O)N1CCCc2c1c(=O)oc1ccc(OCc3ccccc3)cc21 (stereo unspecified)
stdout: 43

stdin: Lookup CN(C(=O)C1CCN(c2ncnc3c2nc2n3CCCCC2)CC1)c1ccccc1F
stdout: 60

stdin: Lookup COc1ccc(C(=O)NCC(c2ccc3c(c2)OCO3)N2CCN(C)CC2)cc1 (stereo unspecified)
stdout: 60

stdin: Lookup COc1ccc(CCNC(=O)CN(c2cc(C(F)(F)F)ccc2Cl)S(C)(=O)=O)cc1
stdout: 68

stdin: Lookup COc1ccc(OCc2nnc(-c3ccccc3)o2)cc1
stdout: 106

stdin: Lookup Cc1cc(C)cc(-n2c(C)nc3cc(C(=O)NCc4ccc(F)cc4)ccc32)c1
stdout: 138

stdin: Lookup CN(C(=O)CSc1nc2ccc(NC(=O)c3ccccc3)cc2s1)c1ccccc1
stdout: 77

stdin: Lookup CC(C)(C)OC(=O)N1CCC(c2c(C(=O)NCc3cccs3)cnn2-c2cccc(F)c2)CC1
stdout: -6

stdin: Lookup Cc1ccc(-n2ncc(C(=O)NCc3cccs3)c2C2CCN(C(=O)OC(C)(C)C)CC2)cc1C
stdout: 90

stdin: Lookup CCOC(=O)c1[nH]c2ccccc2c1N=CN(C)C
stdout: 104

stdin: Lookup CC(=O)c1cccc(NC(=O)C2CCN(S(=O)(=O)c3ccc4[nH]c(=O)ccc4c3)CC2)c1
stdout: 75

stdin: Lookup CSc1nnc(-c2cc3ccccc3cc2O)n1C
stdout: 111

stdin: Lookup CC(=O)N1CCc2cc(S(=O)(=O)NC(Cc3ccccc3)C(=O)Nc3ccc(Cl)cc3)ccc21 (stereo unspecified)
stdout: 89

stdin: Lookup Cc1ccc2sc(N3CCN(C(=O)C4COc5ccccc5O4)CC3)nc2c1C (stereo unspecified)
stdout: 148

stdin: Lookup COc1ccc(CNC(=O)CCc2c(C)c3cc4c(C)coc4c(C)c3oc2=O)cc1OC
stdout: 82

stdin: Lookup O=C(CCC(=O)N1CCOc2ccccc21)NCc1cccs1
stdout: 83

stdin: Lookup COc1cccc(NC(=O)c2cnc(SCC(=O)N3CCCc4ccccc43)n(C)c2=O)c1
stdout: 54
